B1: NET1 (parent)
chain: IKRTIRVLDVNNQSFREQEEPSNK

- Variants of: B1
- ASSAY COMMENT: protein stability index of a GFP-peptide fusion (GPS, HEK-293T) (PSI 1-6); higher = more stable;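 note: lentivirally expressed fusions sorted by FACS into six bins by GFP to DsRed ratio, PSI derived from sequencing read proportions per bin multiplied by bin number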
- RECORDED CONDITIONS: c terminus: a fixed tail appended
Lab note: anything with protein stability index at or over 4 counts as y; the rest go in n.

Worked examples follow.
>  <VARIANT STRING>
F15H

>  <LABEL VALUE>
y

$$$$
>  <VARIANT STRING>
K2M

>  <LABEL VALUE>
n

$$$$
>  <VARIANT STRING>
N23L

>  <LABEL VALUE>
n

$$$$

-- ask Could you tell me if the measured protein stability index of E19D reaches 4 or more?
-- reply n

-- ask Quick check, protein stability index >= 4? P21I
-- reply n

-- ask Answer whether protein stability index of E20N is greater than or equal to 4.
-- reply n

-- ask Identify whether the reported protein stability index of the following variant is 4 or greater: R3Y
-- reply n

-- ask Is protein stability index at least 4? Consider E19I
-- reply n

-- ask Confirm if protein stability index reported for the variant N11V is 4 or above.
-- reply n

-- ask Could you tell me if the measured protein stability index of N23C reaches 4 or more?
-- reply n

-- ask Evaluate S14R : protein stability index at minimum 4?
-- reply n

Entry source: the supplement of paper PMC10567573
